TARGET OF ASSAY: Potassium channel subfamily K member 9 (Homo sapiens)
PROTOCOL DETAILS: blockers of human TASK-3 (KCNK9) channel – HEK293 cells, thallium flux, primary screen (AID 488922)
TEST CONTEXT: HEK293 KCNK9, FluxOR thallium flux fluorescence, at 10 µM
Out of some 310,000 compounds screened, about 3,800 (1.2%) were called active.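 The calls were made as follows: active = ratio B-score over 3 SD below the library mean, with starting fluorescence within 5 SD of its mean; inactive = the rest, inconclusive results apart.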 The sample holds actives, similar compounds and a random draw of the others, so the mix is not that of the screen.
Give one outcome, nothing more. List: yes for active, no for inactive

1. CC(C)(C)NC(=O)Cn1c(SCC(=O)Nc2nccs2)nc2ccccc21    no
2. O=C(CN1C(=O)S/C(=C\c2ccccc2F)C1=O)NCCCn1ccnc1    no
3. CCOC(=O)N/N=C/c1cn(Cc2ccccc2Cl)c2ccccc12    yes
4. Cc1ccc(-c2cc(C(=O)N/N=C/C=C/c3ccco3)c3ccccc3n2)cc1C    no
5. CCO[C@H]1OC(C(=O)NCc2ccccc2)=C[C@@H](c2coc3ccccc3c2=O)[C@@H]1CCCO    no
6. c1ccc(C2CNCc3c2ccc2ccccc32)cc1 (stereo not drawn)    no

Status in this test for Cc1ccc(CNC(=O)CCS(=O)(=O)c2ccc3c(c2)CC(C)N3C(=O)C2CC2)o1 (stereo not drawn) ?
no

Status in this test for N#Cc1ccc(C(c2nnnn2CCc2ccccc2)N2CCCCCC2)cc1 (stereo not drawn) ?
yes
